study_target: T1, human GPC3-His protein (human, UniProt P51654 25-559)
T1 construct: Bought protein; also called human GPC3 protein; not shown: His tag
assay_protocol: ELISA, coated human GPC3, antibody 10 nM;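 also: plate coated with antigen at 1 µg/mL, antibodies bound 2 h at 37 °C, detected via HRP-conjugated secondary antibody and TMB substrate, absorbance read after acid stop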
Measured OD450 nm by item
reported_metric: OD450 nm (OD450)

>>> quantitative_result("F2.55.11 human-murine chimeric antibody (antibody, human IgG1, kappa, V domains shown) VH: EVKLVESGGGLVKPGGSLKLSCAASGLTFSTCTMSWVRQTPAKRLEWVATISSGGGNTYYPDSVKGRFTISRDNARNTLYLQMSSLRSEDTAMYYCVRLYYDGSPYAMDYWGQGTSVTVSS VL: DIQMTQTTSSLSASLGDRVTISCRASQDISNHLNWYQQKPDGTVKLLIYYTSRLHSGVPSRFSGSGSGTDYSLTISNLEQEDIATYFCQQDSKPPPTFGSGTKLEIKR")
2.66
>>> quantitative_result("F2.154.1 human-murine chimeric antibody (antibody, human IgG1, kappa, V domains shown) VH: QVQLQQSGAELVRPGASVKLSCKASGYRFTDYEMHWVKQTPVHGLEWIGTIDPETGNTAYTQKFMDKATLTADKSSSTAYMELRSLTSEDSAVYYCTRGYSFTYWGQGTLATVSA VL: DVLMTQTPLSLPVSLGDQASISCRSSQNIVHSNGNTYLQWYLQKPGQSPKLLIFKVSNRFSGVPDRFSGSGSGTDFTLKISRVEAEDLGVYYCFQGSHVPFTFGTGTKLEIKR")
2.52
>>> quantitative_result("F2.169.2 human-murine chimeric antibody (antibody, human IgG1, kappa, V domains shown) VH: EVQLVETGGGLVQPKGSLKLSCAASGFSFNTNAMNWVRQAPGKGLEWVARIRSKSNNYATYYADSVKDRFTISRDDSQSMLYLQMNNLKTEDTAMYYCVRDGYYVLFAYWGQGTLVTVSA VL: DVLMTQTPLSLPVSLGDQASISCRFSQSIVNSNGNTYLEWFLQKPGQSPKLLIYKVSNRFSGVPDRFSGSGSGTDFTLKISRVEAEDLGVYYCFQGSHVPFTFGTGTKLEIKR")
2.52
>>> quantitative_result("F1.136.7 human-murine chimeric antibody (antibody, human IgG1, kappa, V domains shown) VH: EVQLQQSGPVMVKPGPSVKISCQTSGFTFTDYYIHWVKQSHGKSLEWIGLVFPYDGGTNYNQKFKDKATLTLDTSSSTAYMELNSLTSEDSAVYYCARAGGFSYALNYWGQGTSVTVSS VL: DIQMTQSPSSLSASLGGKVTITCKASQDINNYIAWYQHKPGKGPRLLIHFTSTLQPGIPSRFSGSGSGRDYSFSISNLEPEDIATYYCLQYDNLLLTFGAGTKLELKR")
1.4
>>> quantitative_result("F4.26.1 human-murine chimeric antibody (antibody, human IgG1, kappa, V domains shown) VH: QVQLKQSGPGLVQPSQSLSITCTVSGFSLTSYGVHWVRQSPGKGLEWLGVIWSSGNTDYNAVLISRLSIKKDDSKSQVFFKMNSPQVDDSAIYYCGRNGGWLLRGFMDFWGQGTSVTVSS VL: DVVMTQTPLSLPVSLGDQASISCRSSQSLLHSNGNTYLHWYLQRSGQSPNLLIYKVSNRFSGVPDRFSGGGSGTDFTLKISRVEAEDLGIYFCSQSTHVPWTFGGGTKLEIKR")
1.43
